Entry source: patent US20260224563A1

# test-details: Pharmacokinetics of HC-7366 in male and female beagle dogs following IV and oral administration of HC-7366-K (plasma and urine, LC-MS/MS)
# Type: in vivo, Beagle Dog
# measurement-setup: dog; Male Beagle dogs, PO 50 mg/kg, t = 48 h, HC-7366 in plasma, mean n = 3
quantity-measured: AUC(0-t)
Remember to quote the unit after the number.

Q: Give its AUC(0-t) value. Item: `CNC(=O)c1ncn2cc(-c3c(F)ccc(NS(=O)(=O)c4cc(Cl)cnc4OC)c3F)ncc12`
Ans: 4290 µg·h/mL

====

# test-details: Pharmacokinetics of HC-7366 in male and female beagle dogs following IV and oral administration of HC-7366-K (plasma and urine, LC-MS/MS)
# Assay type: in vivo, Beagle Dog
# measurement-setup: plasma; male beagle dog, oral 10 mg/kg; read-out: terminal half-life (t1/2) (converted)
quantity-measured: half-life (h)
State just the number; it will be interpreted in h.

Q: # get_value(readout='half-life', item= `CNC(=O)c1ncn2cc(-c3c(F)ccc(NS(=O)(=O)c4cc(Cl)cnc4OC)c3F)ncc12` )
Ans: 15

====

# test-details: Pharmacokinetics of HC-7366 in male and female beagle dogs following IV and oral administration of HC-7366-K (plasma and urine, LC-MS/MS)
# Format: in vivo, Beagle Dog
# measurement-setup: dog, urine and plasma; female Beagle dogs, intravenous 0.5 mg/kg; read-out: Renal Clearance
quantity-measured: CL renal (mL/day/kg)
The answer is to be given in mL/day/kg; state only the numeric part.

Q: CL renal for `CNC(=O)c1ncn2cc(-c3c(F)ccc(NS(=O)(=O)c4cc(Cl)cnc4OC)c3F)ncc12` ?
Ans: 0.158

====

# test-details: Multicenter, open-label, Phase 1a/b study of HC-7366 in subjects with advanced solid tumors (safety, PK)
# Assay type: in vivo
# measurement-setup: human, plasma, po, 20 mg, human, single oral dose 20 mg (N = 3), Cycle 1 Day 1, geometric mean
quantity-measured: Cmax (ng/mL)
Use ng/mL as the unit, but write only the number.

Q: Cmax lookup needed for `CNC(=O)c1ncn2cc(-c3c(F)ccc(NS(=O)(=O)c4cc(Cl)cnc4OC)c3F)ncc12` , thanks.
Ans: 2330

====

# test-details: Multicenter, open-label, Phase 1a/b study of HC-7366 in subjects with advanced solid tumors (safety, PK)
# Type: in vivo
# measurement-setup: human, plasma, po, 125 mg, human, single oral dose 125 mg (N = 6), Cycle 1 Day 1, geometric mean; read-out: AUC0-24
quantity-measured: AUC(0-t)
Could you write the number and then its unit?

Q: What does the data say about its AUC(0-t)? Entry: CNC(=O)c1ncn2cc(-c3c(F)ccc(NS(=O)(=O)c4cc(Cl)cnc4OC)c3F)ncc12 [HC-7366]
Ans: 216 µg·h/mL

====

# test-details: Multicenter, open-label, Phase 1a/b study of HC-7366 in subjects with advanced solid tumors (safety, PK)
# Format: in vivo
# measurement-setup: human, plasma, po, 20 mg, human, multiple once daily oral 20 mg (N = 3), Cycle 1 Day 21, geometric mean; read-out: Vz/F
quantity-measured: Vd/F

Q: Given `CNC(=O)c1ncn2cc(-c3c(F)ccc(NS(=O)(=O)c4cc(Cl)cnc4OC)c3F)ncc12` , state its recorded Vd/F.
Ans: 8.4 L

====

# test-details: Pharmacokinetics of HC-7366 in male and female beagle dogs following IV and oral administration of HC-7366-K (plasma and urine, LC-MS/MS)
# Type: in vivo, Beagle Dog
# measurement-setup: Female Beagle dog, PO 1 mg/kg, plasma, mean n = 3
quantity-measured: AUC(0-inf) (µg·h/mL)
Please respond with the number in µg·h/mL and leave the unit unwritten.

Q: So what does the record say about AUC(0-inf) for `CNC(=O)c1ncn2cc(-c3c(F)ccc(NS(=O)(=O)c4cc(Cl)cnc4OC)c3F)ncc12` ?
Ans: 170

====

# test-details: Pharmacokinetics of HC-7366 in male and female beagle dogs following IV and oral administration of HC-7366-K (plasma and urine, LC-MS/MS)
# Type: in vivo, Beagle Dog
# measurement-setup: plasma; female beagle dog, oral 10 mg/kg, three animals; read-out: time post dose at which Cmax was observed (Tmax)
quantity-measured: Tmax

Q: Tmax lookup needed for `CNC(=O)c1ncn2cc(-c3c(F)ccc(NS(=O)(=O)c4cc(Cl)cnc4OC)c3F)ncc12` , thanks.
Ans: 30 to 60 min

====

# test-details: Pharmacokinetics of HC-7366 in male and female beagle dogs following IV and oral administration of HC-7366-K (plasma and urine, LC-MS/MS)
# Type: in vivo, Beagle Dog
# measurement-setup: plasma; male beagle dog, oral 150 mg/kg; read-out: Mean oral bioavailability (FPO)
quantity-measured: bioavailability (%)
The answer is to be given in %; state only the numeric part.

Q: Quick one: bioavailability of CNC(=O)c1ncn2cc(-c3c(F)ccc(NS(=O)(=O)c4cc(Cl)cnc4OC)c3F)ncc12 [HC-7366-K] ?
Ans: 21

====

# test-details: Multicenter, open-label, Phase 1a/b study of HC-7366 in subjects with advanced solid tumors (safety, PK)
# Type: in vivo
# measurement-setup: human, plasma, po, 125 mg, human, single oral dose 125 mg (N = 6), Cycle 1 Day 1, geometric mean; read-out: AUC0-last
quantity-measured: AUC(0-t) (µg·h/mL)
Kindly provide the numeric value in µg·h/mL only, without the unit symbol.

Q: # AUC(0-t) lookup, item CNC(=O)c1ncn2cc(-c3c(F)ccc(NS(=O)(=O)c4cc(Cl)cnc4OC)c3F)ncc12 [HC-7366]
Ans: 204

====

# test-details: Pharmacokinetics of HC-7366 in male and female beagle dogs following IV and oral administration of HC-7366-K (plasma and urine, LC-MS/MS)
# Assay type: in vivo, Beagle Dog
# measurement-setup: plasma; female beagle dog, oral 50 mg/kg; read-out: terminal half-life (t1/2) (converted)
quantity-measured: half-life

Q: Would you mind telling me what half-life value was observed for `CNC(=O)c1ncn2cc(-c3c(F)ccc(NS(=O)(=O)c4cc(Cl)cnc4OC)c3F)ncc12` ?
Ans: 840 min

====

# test-details: Pharmacokinetics of HC-7366 in male and female beagle dogs following IV and oral administration of HC-7366-K (plasma and urine, LC-MS/MS)
# Format: in vivo, Beagle Dog
# measurement-setup: dog, plasma; female beagle dogs, oral 1 mg/kg; read-out: Mean oral bioavailability (FPO)
quantity-measured: bioavailability

Q: Any idea what bioavailability was measured for CNC(=O)c1ncn2cc(-c3c(F)ccc(NS(=O)(=O)c4cc(Cl)cnc4OC)c3F)ncc12 [HC-7366-K] ?
Ans: 99%

====

# test-details: Multicenter, open-label, Phase 1a/b study of HC-7366 in subjects with advanced solid tumors (safety, PK)
# Format: in vivo
# measurement-setup: human, plasma, po, 40 mg, human, single oral dose 40 mg (N = 11), Cycle 1 Day 1, geometric mean; read-out: Vz/F
# Source text: […]
quantity-measured: Vd/F (L)
Quick note: give the figure in L, leave out the unit.

Q: What Vd/F value was documented for this molecule, `CNC(=O)c1ncn2cc(-c3c(F)ccc(NS(=O)(=O)c4cc(Cl)cnc4OC)c3F)ncc12` ?
Ans: 10.5

====

# test-details: Pharmacokinetics of HC-7366 in male and female beagle dogs following IV and oral administration of HC-7366-K (plasma and urine, LC-MS/MS)
# Format: in vivo, Beagle Dog
# measurement-setup: plasma; female beagle dog, oral 50 mg/kg, suspension of Form III
# Excerpt: The objective of this study was to characterize the pharmacokinetics of HC-7366 in male and female beagle dogs following intravenous (IV) and oral (PO) administration of the potassium salt of the compound of formula (I), which may be referred to in this Example as HC-7366-K. […] After dosing, blood samples were collected at various time points. Plasma and urine was harvested and analysed by LC-MS/MS to characterize the PK profiles of HC-7366. […]
quantity-measured: Cmax (µg/mL)
Express the result in µg/mL but write the number alone.

Q: I'd like to know its Cmax. The molecule in question is CNC(=O)c1ncn2cc(-c3c(F)ccc(NS(=O)(=O)c4cc(Cl)cnc4OC)c3F)ncc12 [HC-7366-K]
Ans: 246

====

# test-details: Multicenter, open-label, Phase 1a/b study of HC-7366 in subjects with advanced solid tumors (safety, PK)
# Assay type: in vivo
# measurement-setup: plasma; human, multiple once daily oral 10 mg (N = 3), Cycle 1 Day 21, geometric mean; read-out: AUC0-τ
quantity-measured: AUC (ng·h/mL)
# unit: ng·h/mL | format: bare number

Q: Name the reported AUC value associated with the molecule `CNC(=O)c1ncn2cc(-c3c(F)ccc(NS(=O)(=O)c4cc(Cl)cnc4OC)c3F)ncc12`
Ans: 21900

====

# test-details: Pharmacokinetics of HC-7366 in male and female beagle dogs following IV and oral administration of HC-7366-K (plasma and urine, LC-MS/MS)
# Assay type: in vivo, Beagle Dog
# measurement-setup: Female Beagle dog, PO 1 mg/kg, t = 48 h, plasma, mean n = 3
quantity-measured: AUC(0-t) (µg·h/mL)
Only the number, expressed in µg·h/mL, is required.

Q: Suppose we examine the compound `CNC(=O)c1ncn2cc(-c3c(F)ccc(NS(=O)(=O)c4cc(Cl)cnc4OC)c3F)ncc12` ; what AUC(0-t) value has been reported?
Ans: 156
